We begin with a simple list: items and their reported EC50.
Biological target: T1, human IL-1α (human, UniProt P01583 113-271)
T1 construct: also called hIL-1α; recombinant purified human IL-1α
T1 sequence: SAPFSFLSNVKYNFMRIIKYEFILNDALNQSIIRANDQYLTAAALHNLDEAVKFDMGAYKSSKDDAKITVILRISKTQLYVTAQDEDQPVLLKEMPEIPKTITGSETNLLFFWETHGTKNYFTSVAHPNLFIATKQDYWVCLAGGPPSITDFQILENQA
Test: ELISA; antibody captured by anti-human Fc, biotinylated antigen titrated
Record the value in nM, omitting the unit from your answer.

Q: Which EC50 is reported for this binder? 3D12-362-10 (antibody, V domains shown, no constant regions are stated for these clones; The humanized parents used human IgG1 with L234A/L235A and human kappa) VH: EVQLVQSGAEVKKPGVSVKVSCKASGYTFTTYGMHWVRQAPGQGLEWMGWINTYTGESTYADDFQGRVTFTLDTSTSTAYMELSSLRSEDTAVYFCARGIYYYGSSYAMNYWGQGTTVTVSS VL: DIQMTQSPSSLSASVGDRVTITCRASQDISNCLNWYQQKPGKTPKLLIYYTSRLHSGVPSRFSGSGSGTDYTFTISSLQPEDIATYFCQQGKTLPYAFGQGTKLEIKR
Result: 0.0196

Q: Which EC50 is reported for this binder? 3D12-372-10 (antibody, V domains shown, no constant regions are stated for this clone) VH: EIQLVQSGAEVKKPGASVKVSCKASGYTFTNYGMNWVRQAPGQGLEWMGWINTYTGESTYADDFKGRFTFTLDTSTSTAYMELSSLRSEDTAVYFCARGIYYYGSSYAMDYWGQGTTVTVSS VL: DIQMTQSPSSLSASVGDRVTITCRASQDISDMLNWYQQKPGKTPKLLIYHTSRLYSGVPSRFSGSGSGTDYTFTISSLQPEDIATYFCQQGKTLPPAFGQGTKLEIKR
Result: 0.0721

Q: Which EC50 is reported for this binder? 3D12-372-15 (antibody, V domains shown, no constant regions are stated for this clone) VH: EIQLVQSGAEVKKPGASVKVSCKASGYTFTNYGMNWVRQAPGQDLEWMGWINTYTGESTYADDFKGRFTFTLDTSTSTAYMELSSLRSEDTAVYFCARGIYYYGSSYAMDYWGQGTTVTVSS VL: DIQMTQSPSSLSASVGDRVTITCRASQDISNMLNWYQQKPGKTPKLLIYYTSRLYPGVPSRFSGSGSGTDYTFTISSLQPEDIATYFCQQGKTLPYAFGQGTKLEIKR
Result: 0.0742

Q: Which EC50 is reported for this binder? 3D12-362-10/372-10 (antibody, V domains shown) VH: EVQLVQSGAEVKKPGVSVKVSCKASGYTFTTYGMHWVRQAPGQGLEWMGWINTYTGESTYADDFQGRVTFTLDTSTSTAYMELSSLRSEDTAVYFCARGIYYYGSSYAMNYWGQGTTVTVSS VL: DIQMTQSPSSLSASVGDRVTITCRASQDISDMLNWYQQKPGKTPKLLIYHTSRLYSGVPSRFSGSGSGTDYTFTISSLQPEDIATYFCQQGKTLPPAFGQGTKLEIKR
Result: 0.133
